Reference source for all entries: paper PMC10377586

- system name: rat D1 receptor (Rattus norvegicus, UniProt P18901)
- Construct: source of native rat D1 receptor protein; from tissue; host or cells: rat striatum (methods) / rat brain cortical membranes
- Sequence (P18901 whole entry): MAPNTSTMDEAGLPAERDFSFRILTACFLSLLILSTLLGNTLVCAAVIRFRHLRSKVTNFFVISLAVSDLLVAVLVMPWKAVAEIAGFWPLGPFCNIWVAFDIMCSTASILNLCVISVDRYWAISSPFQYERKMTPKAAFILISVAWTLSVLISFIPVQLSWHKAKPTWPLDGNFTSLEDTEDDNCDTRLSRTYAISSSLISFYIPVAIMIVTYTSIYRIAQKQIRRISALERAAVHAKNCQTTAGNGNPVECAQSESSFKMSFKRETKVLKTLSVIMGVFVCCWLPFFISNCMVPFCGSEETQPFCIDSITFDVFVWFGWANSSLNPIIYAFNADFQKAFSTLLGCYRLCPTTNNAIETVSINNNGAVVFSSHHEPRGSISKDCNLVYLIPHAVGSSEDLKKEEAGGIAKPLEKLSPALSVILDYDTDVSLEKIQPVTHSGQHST
- test protocol: Radioligand binding [3H]SCH23390, rat brain tissue
- experimental conditions: read-out: rD1 [3H]SCH23390 % inhibition ± SEM at 1 µM
- Description: Rat brain cortical membranes were used as source of native rat D1 receptor protein, and human D2 receptor was recombinantly expressed in HEK293 cells. Rat striatum tissue was thawed in 50 volumes of ice-cold 50 mM potassium phosphate buffer, pH 7.4, homogenized and centrifuged at 20,000× g for 20 min. The resulting pellet was resuspended in the same quantity of the buffer and centrifuged again for 20 min. […] Results were expressed as a percent of inhibition of specific binding.
property measured: inhibition at 1 µM (%)

Use the examples below as a reference point.
molecule	unit of measure	inhibition at 1 µM
Cn1c(=O)c2c(nc(NCCc3ccc(O)c(O)c3)n2C)n(C)c1=O [Compound 11a]	%	13
CCCCn1c(=O)c2c(nc(NCCc3ccc(O)c(O)c3)n2CCC)n(CCCC)c1=O	%	2

a = Cn1c(=O)c2c(nc(NCCc3ccc(O)c(O)c3)n2Cc2ccccc2)n(C)c1=O [Compound 11j]
b = CCCn1c(=O)c2c(nc(NCCc3ccc(O)c(O)c3)n2CCC)n(CCC)c1=O
Q: Please indicate which item has the smaller measured inhibition at 1 µM: a versus b Use the label to indicate which entry you chose.
Ans: a
(a: 3%, b: 9%)

###

- system name: human PDE10A1 (Homo sapiens)
- Construct: purchased BPS Biosciences
- Sequence (Q9Y233 1-779 isoform Q9Y233-1): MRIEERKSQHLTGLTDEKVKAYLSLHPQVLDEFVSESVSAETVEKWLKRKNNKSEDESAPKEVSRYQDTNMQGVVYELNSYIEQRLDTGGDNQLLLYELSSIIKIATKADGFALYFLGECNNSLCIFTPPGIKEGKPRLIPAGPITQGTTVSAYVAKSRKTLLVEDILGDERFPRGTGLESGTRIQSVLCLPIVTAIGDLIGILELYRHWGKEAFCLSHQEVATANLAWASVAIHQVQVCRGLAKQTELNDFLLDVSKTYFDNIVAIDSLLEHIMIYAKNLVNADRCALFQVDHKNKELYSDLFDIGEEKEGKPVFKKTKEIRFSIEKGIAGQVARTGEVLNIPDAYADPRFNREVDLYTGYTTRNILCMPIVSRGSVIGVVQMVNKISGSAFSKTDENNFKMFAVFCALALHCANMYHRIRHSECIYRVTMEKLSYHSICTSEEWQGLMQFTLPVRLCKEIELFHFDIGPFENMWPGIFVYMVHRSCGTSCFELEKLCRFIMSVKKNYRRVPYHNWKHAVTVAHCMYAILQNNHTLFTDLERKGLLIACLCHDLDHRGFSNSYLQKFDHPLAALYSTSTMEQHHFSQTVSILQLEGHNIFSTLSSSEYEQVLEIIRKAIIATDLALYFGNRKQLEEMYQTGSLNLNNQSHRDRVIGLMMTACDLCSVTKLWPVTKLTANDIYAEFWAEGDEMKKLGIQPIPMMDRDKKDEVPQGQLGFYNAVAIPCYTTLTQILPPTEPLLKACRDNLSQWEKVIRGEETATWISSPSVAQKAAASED
- test protocol: PDElight HTS cAMP phosphodiesterase assay, PDE10A1
- Assay type: biochemical
- experimental conditions: read-out: PDE 10A1 % Inhibition ± SEM at 10 µM
property measured: inhibition at 10 µM (%)

Use the examples below as a reference point.
molecule	property measured	reading
CC(C)Cn1c(NCCc2ccc(O)c(O)c2)nc2c1c(=O)n(C)c(=O)n2C [Compound 11f]	inhibition at 10 µM	59
Cn1c(=O)c2c(nc(NCCc3ccc(O)c(O)c3)n2CCOc2ccccc2)n(C)c1=O [Compound 11l]	inhibition at 10 µM	17
CCCCn1c(=O)c2c(nc(NCCc3ccc(O)c(O)c3)n2CCC)n(CCCC)c1=O	inhibition at 10 µM	26

1 = CCCCCn1c(NCCc2ccc(O)c(O)c2)nc2c1c(=O)n(C)c(=O)n2C [Compound 11h]
2 = CCCCCCn1c(NCCc2ccc(O)c(O)c2)nc2c1c(=O)n(C)c(=O)n2C [Compound 11i]
Q: Please indicate which item has the smaller measured inhibition at 10 µM: 1 versus 2 Use the label to indicate which entry you chose.
Ans: 2

I = CCCCn1c(=O)c2c(nc3n2CCCN3CCc2ccc(O)c(O)c2)n(CCCC)c1=O
II = Cn1c(=O)c2c(nc(NCCc3ccc(O)c(O)c3)n2Cc2ccccc2)n(C)c1=O [Compound 11j]
Q: Please indicate which item has the smaller measured inhibition at 10 µM: I versus II Use the label to indicate which entry you chose.
Ans: I
(I: 25%, II: 36%)

###

- system name: human A2B (hA2B) ARs (Homo sapiens)
- Construct: expressed in transfected cells; host or cells: CHO cells (membranes)
- Sequence (P29275 whole entry): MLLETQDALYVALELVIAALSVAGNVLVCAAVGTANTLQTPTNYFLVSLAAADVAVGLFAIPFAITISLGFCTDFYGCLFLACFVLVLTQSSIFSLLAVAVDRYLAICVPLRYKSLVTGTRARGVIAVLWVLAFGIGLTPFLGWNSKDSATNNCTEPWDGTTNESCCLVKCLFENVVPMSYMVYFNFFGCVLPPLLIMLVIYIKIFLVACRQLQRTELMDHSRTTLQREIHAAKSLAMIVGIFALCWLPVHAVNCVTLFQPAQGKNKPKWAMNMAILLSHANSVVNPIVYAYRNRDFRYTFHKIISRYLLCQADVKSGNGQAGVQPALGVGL
- test protocol: Radioligand binding [3H]PSB-603, CHO cell membranes
- experimental conditions: read-out: hA2B [3H]PSB-603 % inhibition ± SEM at 1 µM
property measured: inhibition at 1 µM (%)

Use the examples below as a reference point.
compound	unit of measure	inhibition at 1 µM
CCn1c(NCCc2ccc(O)c(O)c2)nc2c1c(=O)n(C)c(=O)n2C [Compound 11b]	%	-2
Cn1c(=O)c2c(nc3n2CCCCN3CCc2ccc(O)c(O)c2)n(C)c1=O [Compound 20b]	%	6
CCCCCn1c(NCCc2ccc(O)c(O)c2)nc2c1c(=O)n(C)c(=O)n2C [Compound 11h]	%	12
CCCCn1c(NCCc2ccc(O)c(O)c2)nc2c1c(=O)n(C)c(=O)n2C [Compound 11e]	%	14

1 = Cn1c(=O)c2c(nc3n2CCCN3CCc2ccc(O)c(O)c2)n(C)c1=O [Compound 20a]
2 = CCCCCCn1c(NCCc2ccc(O)c(O)c2)nc2c1c(=O)n(C)c(=O)n2C [Compound 11i]
3 = Cn1c(=O)c2c(nc(NCCc3ccc(O)c(O)c3)n2C)n(C)c1=O [Compound 11a]
4 = CCCn1c(NCCc2ccc(O)c(O)c2)nc2c1c(=O)n(C)c(=O)n2C [Compound 11c]
Q: List the 4 entries from lowest inhibition at 1 µM to highest inhibition at 1 µM value. Write the labels, ordered according to the request.
Ans: 4, 1, 3, 2

###

Listed next: entries and their corresponding melting point.

compound	melting point
Cn1c(=O)c2c(nc3n2CCCN3CCc2ccc(O)c(O)c2)n(C)c1=O [Compound 20a]	213 to 215 °C
Cn1c(=O)c2c(nc3n2CCCCN3CCc2ccc(O)c(O)c2)n(C)c1=O [Compound 20b]	232 to 235 °C
Cn1c(=O)c2c(nc(NCCc3ccc(O)c(O)c3)n2CCOc2ccccc2)n(C)c1=O [Compound 11l]	218 to 220 °C

Q: Name the recorded melting point of the compound listed here: CC(C)Cn1c(NCCc2ccc(O)c(O)c2)nc2c1c(=O)n(C)c(=O)n2C (hydrate or solvate) [Compound 11f]
Ans: 201 to 203 °C

Q: Name the recorded melting point of the compound listed here: CC(C)n1c(NCCc2ccc(O)c(O)c2)nc2c1c(=O)n(C)c(=O)n2C [Compound 11d]
Ans: 180 to 182 °C

###

- system name: human MAO-A (Homo sapiens, UniProt P21397)
- test protocol: Amplex Red monoamine oxidase assay, MAO-A
- experimental conditions: human recombinant MAO-A; read-out: MAO-A IC50 ± SEM
property measured: IC50

Use the examples below as a reference point.
molecule	system name	IC50
CCCn1c(=O)c2c(nc3n2CCCN3CCc2ccc(O)c(O)c2)n(CCC)c1=O [Compound 21]	human MAO-A (Homo sapiens, UniProt P21397)	~1000 nM
CC(C)n1c(NCCc2ccc(O)c(O)c2)nc2c1c(=O)n(C)c(=O)n2C [Compound 11d]	human MAO-A (Homo sapiens, UniProt P21397)	≥ 1000 nM
Cn1c(=O)c2c(nc(NCCc3ccc(O)c(O)c3)n2Cc2ccccc2)n(C)c1=O [Compound 11j]	human MAO-A (Homo sapiens, UniProt P21397)	576 nM
CCCCn1c(=O)c2c(nc(NCCc3ccc(O)c(O)c3)n2CCC)n(CCCC)c1=O [Compound 13]	human MAO-A (Homo sapiens, UniProt P21397)	> 1000 nM
CCn1c(NCCc2ccc(O)c(O)c2)nc2c1c(=O)n(C)c(=O)n2C [Compound 11b]	human MAO-A (Homo sapiens, UniProt P21397)	891 nM

Q: Name the recorded IC50 of the molecule listed here: CCCCCCn1c(NCCc2ccc(O)c(O)c2)nc2c1c(=O)n(C)c(=O)n2C [Compound 11i]
Ans: 246 nM

Q: Name the recorded IC50 of the molecule listed here: Cn1c(=O)c2c(nc3n2CCCCN3CCc2ccc(O)c(O)c2)n(C)c1=O [Compound 20b]
Ans: > 1000 nM

Q: Name the recorded IC50 of the molecule listed here: Cn1c(=O)c2c(nc(NCCc3ccc(O)c(O)c3)n2C)n(C)c1=O [Compound 11a]
Ans: > 1000 nM

###

- system name: human PDE4B1 (Homo sapiens, UniProt Q07343)
- Construct: purchased BPS Biosciences
- Sequence (Q07343 whole entry): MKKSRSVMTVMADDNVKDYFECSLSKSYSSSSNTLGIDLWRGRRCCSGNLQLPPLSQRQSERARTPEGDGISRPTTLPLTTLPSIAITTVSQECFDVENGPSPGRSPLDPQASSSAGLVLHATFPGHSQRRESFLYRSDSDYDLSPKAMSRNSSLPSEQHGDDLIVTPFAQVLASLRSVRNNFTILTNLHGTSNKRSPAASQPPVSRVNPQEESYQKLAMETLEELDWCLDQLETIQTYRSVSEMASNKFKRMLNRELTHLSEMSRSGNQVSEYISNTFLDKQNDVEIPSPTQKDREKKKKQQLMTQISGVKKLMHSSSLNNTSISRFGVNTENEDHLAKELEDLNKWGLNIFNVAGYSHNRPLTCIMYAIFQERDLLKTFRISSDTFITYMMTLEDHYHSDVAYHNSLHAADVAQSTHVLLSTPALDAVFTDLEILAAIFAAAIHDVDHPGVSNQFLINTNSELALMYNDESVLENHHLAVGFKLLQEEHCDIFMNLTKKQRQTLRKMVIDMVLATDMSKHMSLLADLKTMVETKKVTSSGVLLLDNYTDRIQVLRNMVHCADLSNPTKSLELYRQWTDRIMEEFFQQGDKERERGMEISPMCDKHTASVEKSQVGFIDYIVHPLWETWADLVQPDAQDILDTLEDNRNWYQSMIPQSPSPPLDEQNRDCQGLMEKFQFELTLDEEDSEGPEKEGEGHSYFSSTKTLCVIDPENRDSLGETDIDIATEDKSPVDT
- test protocol: PDElight HTS cAMP phosphodiesterase assay, PDE4B1
- Type: biochemical
- experimental conditions: read-out: PDE 4B1 % Inhibition ± SEM at 10 µM
property measured: inhibition at 10 µM (%)

P = Cn1c(=O)c2c(nc3n2CCCCN3CCc2ccc(O)c(O)c2)n(C)c1=O [Compound 20b]
Q = CCCCn1c(=O)c2c(nc3n2CCCN3CCc2ccc(O)c(O)c2)n(CCCC)c1=O [Compound 22]
Q: Thinking about recorded inhibition at 10 µM values, which is higher, P or Q ? Use the label to indicate which entry you chose.
Ans: P

###

- system name: human MAO-A (Homo sapiens, UniProt P21397)
- Construct: purchased Sigma Aldrich M7316
- Sequence (P21397 1-527): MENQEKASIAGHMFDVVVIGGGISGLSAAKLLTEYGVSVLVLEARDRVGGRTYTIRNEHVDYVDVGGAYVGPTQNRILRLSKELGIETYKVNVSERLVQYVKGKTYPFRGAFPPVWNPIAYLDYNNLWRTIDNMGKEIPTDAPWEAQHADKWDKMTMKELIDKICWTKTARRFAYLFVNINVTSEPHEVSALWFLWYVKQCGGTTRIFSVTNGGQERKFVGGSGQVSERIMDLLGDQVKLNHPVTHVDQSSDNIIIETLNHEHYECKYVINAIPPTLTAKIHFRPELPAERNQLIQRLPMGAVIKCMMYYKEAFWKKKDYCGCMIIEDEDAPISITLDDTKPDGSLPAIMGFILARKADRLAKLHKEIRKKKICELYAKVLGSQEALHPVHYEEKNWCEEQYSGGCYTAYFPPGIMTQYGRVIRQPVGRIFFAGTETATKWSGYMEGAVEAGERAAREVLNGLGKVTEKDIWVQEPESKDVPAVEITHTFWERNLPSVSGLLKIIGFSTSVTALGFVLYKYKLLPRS
- test protocol: Amplex Red monoamine oxidase assay, MAO-A
- Format: biochemical
- experimental conditions: read-out: MAO-A % Inhibition ± SEM at 1 µM
property measured: inhibition at 1 µM (%)

compound	inhibition at 1 µM [%]
CCC(C)n1c(NCCc2ccc(O)c(O)c2)nc2c1c(=O)n(C)c(=O)n2C (centres unmarked) [Compound 11g]	44
CCCn1c(=O)c2c(nc(NCCc3ccc(O)c(O)c3)n2CCC)n(CCC)c1=O	57
CC(C)Cn1c(NCCc2ccc(O)c(O)c2)nc2c1c(=O)n(C)c(=O)n2C [Compound 11f]	42
CCCn1c(NCCc2ccc(O)c(O)c2)nc2c1c(=O)n(C)c(=O)n2C [Compound 11c]	33
Cn1c(=O)c2c(nc(NCCc3ccc(O)c(O)c3)n2C)n(C)c1=O [Compound 11a]	44
